From: PubChem BioAssay AID1851

TARGET_ENTITY: Cytochrome P450 2C9 (Homo sapiens)
ASSAY_SUMMARY: Cytochrome panel assay with activity outcomes
STUDY_CONDITIONS: recombinant CYP, pro-luciferin dealkylation, luminescence, p450-cyp2c9; series mostly up to 57.1 µM
Protocol: The P450 gene superfamily is involved in the metabolism and clearance of xenobiotics. This assay used various human CYP P450 isozymes to measure the dealkylation of various pro-luciferin substrates to luciferin. The luciferin is then measured by luminescence after the addition of a luciferase detection reagent. […] Inhibitors and some substrates limit the production of luciferin, and decrease measured luminescence. […] 8, Detection, 1 sec, ViewLux luminescent read […]
Out of some 16,000 compounds screened, about 4,000 (25%) were called active. Not shown: some 26% with an inconclusive outcome. The list is a sample of the results.
MEASUREMENT_NAME: AC50

Example results:
C#C[C@]1(O)CC[C@@H]2[C@H]3CCC4=CCCC[C@@H]4[C@@H]3CC[C@@]21C :: 10 µM (active)
Oc1ccc(-c2[nH]ncc2-c2ccc(Cl)cc2)c(O)c1 :: 0.794 µM (active)
CC(/C=N/n1c(-c2cccnc2)n[nH]c1=S)=C\c1ccccc1 :: 10 µM (active)
Fc1ccc(Cn2c(SCc3ccc(F)c(F)c3)nnc2C(F)(F)F)cc1 :: 15.8 µM (active)
CCc1ccc(/C=C\C(=O)N2CCc3ccccc3C2)cc1 :: 22.4 µM (active)

`CCOC(=O)CSc1ncc(OC)c(Sc2ccc(Cl)cc2)n1` yielded AC50 of 0.891 µM (active)

###

TARGET_ENTITY: Cytochrome P450 2C9 (Homo sapiens) (UniProt P11712)
Sequence (P11712 whole entry, looked up): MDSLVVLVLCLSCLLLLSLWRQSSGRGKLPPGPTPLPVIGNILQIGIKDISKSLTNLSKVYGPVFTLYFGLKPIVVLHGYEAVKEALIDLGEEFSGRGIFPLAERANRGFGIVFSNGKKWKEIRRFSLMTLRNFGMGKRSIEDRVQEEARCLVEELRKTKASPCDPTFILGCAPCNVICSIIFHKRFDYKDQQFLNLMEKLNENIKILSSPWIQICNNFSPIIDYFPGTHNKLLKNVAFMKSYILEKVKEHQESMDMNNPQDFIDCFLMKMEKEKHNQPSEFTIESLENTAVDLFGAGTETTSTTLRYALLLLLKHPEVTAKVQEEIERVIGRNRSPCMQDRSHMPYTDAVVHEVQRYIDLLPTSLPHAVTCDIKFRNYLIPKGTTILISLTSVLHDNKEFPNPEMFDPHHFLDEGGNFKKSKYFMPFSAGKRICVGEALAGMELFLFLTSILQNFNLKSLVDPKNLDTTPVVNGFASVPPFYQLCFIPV
ASSAY_SUMMARY: Cytochrome panel assay with activity outcomes
STUDY_CONDITIONS: recombinant CYP, pro-luciferin dealkylation, luminescence, p450-cyp2c9; series mostly up to 57.1 µM
The campaign covered roughly 16,000 compounds. About 4,000 (25%) were called active. Not shown: some 26% with an inconclusive outcome. Calls follow the shape of the dose curve; as a rule, active = well fitted curve in the direction sought with a large enough effect; inconclusive = small, poorly fitted or top-dose-only effect, or effect the other way; inactive = no such curve, though single readings can be large or run the other way. The list is a sample of the results.
Lab note: assign the record to one of active, inactive

C=CCn1c(SCC(=O)N2CCc3ccccc3C2)nc2ccccc2c1=O :: active
COc1ccc(CNc2nc(-c3cccc(NS(C)(=O)=O)c3)nc3ccccc23)c(OC)c1 :: active
CCC/C=C(\CCC)C(NS(=O)(=O)c1ccccc1)c1ccc(C(F)(F)F)cc1 (centres undefined) :: active
COc1ccc(C(=O)N2CCC3(CC2)CN(Cc2ccc(C#N)cc2)C3)cc1 :: inactive
CCc1ccc(-c2csc(NC(=O)C3CCCO3)c2C(=O)OC(C)C)cc1 (centres undefined) :: active

Exercise: Returns: the outcome recorded for `CN(CCCNC(=O)c1ccc(/C=N/O)nc1)CCCN(C)Cc1ccccc1` in this assay.
Solution: inactive

Exercise: Could you check what this test reported for `COc1ccc(CNc2ncnc3ccc(-c4cccc(NS(C)(=O)=O)c4)cc23)c(OC)c1` ?
Solution: active

Exercise: Which outcome did this test record for the compound `CCOC(=O)n1ccn(C)c1=S` ?
Solution: inactive

Exercise: Tell me the recorded outcome of this test for `COCCn1c(=O)c(-c2cn(C)c3ccccc23)nc2cnc(Oc3ccc(OC)cc3)nc21` .
Solution: inactive

Exercise: What is the recorded call for this compound in the test? `Cc1nc(SCC(=O)c2cc3ccccc3oc2=O)c(C#N)c(C)c1C(=O)Nc1ccccc1`
Solution: active

Exercise: Query: recorded result category for `COc1ccccc1N1CCN(CCCCN2C(=O)c3ccccc3C2=O)CC1` in this test
Solution: inactive

Exercise: Outcome logged for `COc1ccccc1N1CCN(CCN2C(=O)CC3(CCCC3)CC2=O)CC1` in this assay:
Solution: inactive

Exercise: Answer briefly: the call reported for `O=C(Cn1nc(C(F)F)cc1C(F)F)N/N=C/c1ccc2c(c1)OCO2` in this assay.
Solution: inactive
